# log10 of Ki annotations
Molecular target: Adenosine A3 receptor (Homo sapiens)
Construct: expressed in transfected cells; host or cells: CHO cell membranes
Sequence (P0DMS8 1-318): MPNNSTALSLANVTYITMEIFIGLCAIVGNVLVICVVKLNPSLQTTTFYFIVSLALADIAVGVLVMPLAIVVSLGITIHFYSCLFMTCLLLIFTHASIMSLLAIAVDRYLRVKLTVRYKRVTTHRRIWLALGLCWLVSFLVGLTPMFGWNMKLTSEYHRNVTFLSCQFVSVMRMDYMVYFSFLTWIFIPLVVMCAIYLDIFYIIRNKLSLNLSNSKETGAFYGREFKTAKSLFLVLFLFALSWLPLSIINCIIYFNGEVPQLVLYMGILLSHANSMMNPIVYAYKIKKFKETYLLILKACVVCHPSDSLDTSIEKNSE
Test: Adenosine receptor TR-FRET binding assay, A3
Settings: Table 9, further testing; displacement of 100 nM CA200645, CHO cell membranes; read-out: A3 Ki
Would you kindly interpret these values as log10 of Ki expressed in nM?

| Compound Structure | log10 of Ki |
| --- | --- |
| Cc1cccnc1CNC(=O)c1c(N)nc(-c2ccco2)nc1OCCN | 1.86 |
| Cc1cccc(CNC(=O)c2cnc(-c3ccco3)nc2N)n1 | 3.15 |
| Nc1nc(-c2ccco2)ncc1C(=O)NCc1ccc(F)cc1 | 3.26 |
| COCCOc1nc(-c2ccco2)nc(N)c1C(=O)NCc1ncccc1C | 0.75 |
| Nc1nc(-c2cccc(F)c2)ncc1C(=O)NCc1ccc(F)cc1 | 3.26 |

# query: log10 of Ki of entry Cc1cccnc1CNC(=O)c1cnc(-c2ccco2)nc1N 2.96

Item: Nc1nc(-c2ccco2)ncc1C(=O)NCc1ccc(C(F)(F)F)cc1 3.76

Item: CCn1ccnc1CNC(=O)c1cnc(-c2ccco2)nc1N 3.78

Item: CCn1ccnc1CNC(=O)c1cnc(-c2cccc(F)c2)nc1N 2.78
